Biological target: T1, human CTLA4 (human, UniProt P16410 36-161, limits assumed)
T1 sequence (looked up): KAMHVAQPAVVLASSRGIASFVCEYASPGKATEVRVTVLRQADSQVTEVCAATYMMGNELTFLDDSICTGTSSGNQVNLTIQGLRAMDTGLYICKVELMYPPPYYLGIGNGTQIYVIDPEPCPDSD
Test: selection of human antibodies; method not described

BINDER | binding result
A7 (antibody, V domains shown) VH: QMQLVQSGAEVKKPGASVKVSCKASGGTFSSYAISWVRQAPGQGLEWMGGIIPIFGTANYAQKFQGRVTITADESTSTAYMELSSLRSEDTAVYYCAREIGSYSSGWYRAFDIWGQGTMVTVSS VL: DIVMTQSPSTLSASVGDRVTITCRASQSISSWLAWYQQKPGKAPQLLIYKASNLQSGVPSRFSGSGSVTEFSLTISSLLPEDFATYYCQQYSRPPWTFGQGTKVEIK | binds
F3 (antibody, V domains shown) VH: QMQLVQSGAEVKKPGASVTVSCKASGYTFTNSYIHWVRQAPGQGLEWVGRLIPSSGYTIFSQKLQGRVSMTRDTSMSTHYLTLSHLRPEDTAVYYCATDGGNYNLDFWGQGTLVTVSS VL: QPVLTQPPSVSGSPGQSVTISCTGTSSDVGGYNYVSWYQQHPGKAPKLMIYDVSSRPSGVSNRFSGSKSDNTASLTISGLQAEDEADYYCSSYTSSSPYVFGTGTKVTVL | binds
